B1: BTBD10 (parent)
chain: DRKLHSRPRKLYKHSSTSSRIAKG

variants of: B1; test: protein stability index of a GFP-peptide fusion (GPS, HEK-293T) (PSI 1-6); higher = more stable; settings: c terminus: a fixed tail appended;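 also: lentivirally expressed fusions sorted by FACS into six bins by GFP to DsRed ratio, PSI derived from sequencing read proportions per bin multiplied by bin number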
Met means recorded protein stability index is 4 or above; Not met means it is below 4.

mutation-key	group
H5L	Not met
K23V	Not met
H14M	Not met
H14D	Not met
K23N	Met

Request: # bool: protein stability index of K10V >= 4
Result: Not met

Request: # bool: protein stability index of S6K >= 4
Result: Not met

Request: # bool: protein stability index of L11M >= 4
Result: Met

Request: # bool: protein stability index of R20I >= 4
Result: Not met

Request: # bool: protein stability index of S16G >= 4
Result: Not met

Request: # bool: protein stability index of S16H >= 4
Result: Not met

Request: # bool: protein stability index of S16Q >= 4
Result: Met

Request: # bool: protein stability index of K23D >= 4
Result: Not met

Request: # bool: protein stability index of Y12H >= 4
Result: Not met

Request: # bool: protein stability index of R20W >= 4
Result: Not met

Request: # bool: protein stability index of S6T >= 4
Result: Not met

Request: # bool: protein stability index of K13L >= 4
Result: Not met

Request: # bool: protein stability index of H5M >= 4
Result: Not met

Request: # bool: protein stability index of R9F >= 4
Result: Not met

Request: # bool: protein stability index of S15I >= 4
Result: Not met

Request: # bool: protein stability index of L11K >= 4
Result: Met

Request: # bool: protein stability index of K3Y >= 4
Result: Not met

Request: # bool: protein stability index of R7C >= 4
Result: Not met

Request: # bool: protein stability index of S15A >= 4
Result: Met

Request: # bool: protein stability index of T17W >= 4
Result: Not met
